We begin with IC50 values for Tyrosine-protein kinase Fyn (Homo sapiens, UniProt P06241), as collected from the published literature.

Field: example entries. Status: answers known.
[
  {
    "Molecule": "COc1cc(Nc2ncnc(-n3c(NCCc4ccccc4)nc4ccccc43)n2)cc(OC)c1OC",
    "Property name": "IC50",
    "Reported measurement": "> 9.04 µM"
  },
  {
    "Molecule": "CCN1CCCC(Nc2ccc3c(c2)/C(=C(\\c2ccccc2)c2nc4cc(OC)ccc4[nH]2)C(=O)N3)C1 (centres unmarked)",
    "Property name": "IC50",
    "Reported measurement": "0.5 to 5 µM"
  },
  {
    "Molecule": "Cc1ccc(NC(=O)c2cccc(C(F)(F)F)c2)cc1CCc1cc(NC(=O)c2ccccn2)[nH]n1",
    "Property name": "IC50",
    "Reported measurement": "0.015 µM"
  },
  {
    "Molecule": "COc1ccc(Nc2ccc(Nc3ncnc(Nc4cc(OC)c(OC)c(OC)c4)n3)cc2)cc1",
    "Property name": "IC50",
    "Reported measurement": "0.843 to 5.06 µM"
  },
  {
    "Molecule": "OCc1cccc(Nc2ncnc(Nc3cc(-c4ccco4)n[nH]3)n2)c1",
    "Property name": "IC50",
    "Reported measurement": "1.14 to 6.87 µM"
  },
  {
    "Molecule": "Cc1ccc(NC(=O)c2cc(C(C)(C)C#N)ccn2)cc1CCc1cc(Nc2cnccn2)[nH]n1",
    "Property name": "IC50",
    "Reported measurement": "0.008 µM"
  },
  {
    "Molecule": "COc1cc(Nc2ncnc(N(CC(=O)O)c3ccc4c(c3)OCO4)n2)cc(OC)c1OC",
    "Property name": "IC50",
    "Reported measurement": "> 9.88 µM"
  }
]

Recorded IC50 for COc1cc(Nc2ncnc(Nc3cccc(O)c3)n2)cc(OC)c1OC with Tyrosine-protein kinase Fyn (Homo sapiens, UniProt P06241), please? < 1.08 µM

---

pIC50 for Tyrosine-protein kinase Fyn (Homo sapiens) - collated from the literature.
pIC50: −log10 of the molar value.

[
  {
    "Molecule": "COCCN1CCC(Nc2ccc3c(c2)/C(=C(\\c2cccc(F)c2)c2ncn[nH]2)C(=O)N3)CC1",
    "Subject of test": "Tyrosine-protein kinase Fyn (Homo sapiens)",
    "Property name": "pIC50",
    "Reported measurement": "< 5.30"
  },
  {
    "Molecule": "COc1cc(Nc2ncnc(Nc3ccc4[nH]ccc4c3)n2)cc(OC)c1OC",
    "Subject of test": "Tyrosine-protein kinase Fyn (Homo sapiens)",
    "Property name": "pIC50",
    "Reported measurement": "< 4.94"
  },
  {
    "Molecule": "Cc1ccc(NC(=O)NC2CCC(C)(C)CC2)cc1CCc1cc(NC(=O)c2ccc(OC3CN(C(C)C)C3)cc2)[nH]n1",
    "Subject of test": "Tyrosine-protein kinase Fyn (Homo sapiens)",
    "Property name": "pIC50",
    "Reported measurement": 8.30
  }
]

What value of pIC50 has been reported for the following molecule? COc1cc(Nc2ncnc(Nc3ccc(C)cc3F)n2)cc(OC)c1OC 5.21 to 5.98

Try this molecule next: CN1CCC(c2ccc(C(=O)Nc3n[nH]c4nc(Nc5ccccc5)ccc34)cc2)CC1 7.02

Now the molecule COc1ccc2c(c1)c(CCNC(C)=O)cn2-c1ncnc(Nc2cc(OC)c(OC)c(OC)c2)n1 < 5.04

Entry COc1cc(Nc2ncnc(-n3ccc4cc(OCc5ccccc5)ccc43)n2)cc(OC)c1OC please < 5.03

Moving on to the next molecule: COc1cc(Nc2ncnc(-n3c(NC(C)C)nc4ccccc43)n2)cc(OC)c1OC 5.26 to 6.04

One more molecule: CCN1CCC(Nc2ccc3c(c2)/C(=C(\c2cccc(N)c2)c2nc4ccccc4[nH]2)C(=O)N3)CC1 6.30 to 7.30

Please do the same for COc1cc(Nc2ncnc(-n3ccc4c(OC)cccc43)n2)cc(OC)c1OC as well. < 4.96

What about CCN1CCC(Oc2cc(OC)cc3ncnc(Nc4c(F)ccc5c4OCO5)c23)C(F)(F)C1 (racemic) ? > 7.00
